Test system: Streptococcus pneumoniae
Test: Antimicrobial activity against Streptococcus pneumoniae 4 by time-kill analysis
Type: functional
Rule: MIC below 1 µg/mL gives Condition met. Equal to or above 1 µg/mL gives Condition not met.

Examples from the recorded data:
compound	class.name
COc1c(N2C[C@@H]3CCCN[C@@H]3C2)c(F)cc2c(=O)c(C(=O)O)cn(C3CC3)c12	Condition not met
CC[C@H]1OC(=O)[C@H](C)[C@@H](O[C@H]2C[C@@](C)(OC)[C@@H](O)[C@H](C)O2)[C@H](C)[C@@H](O[C@@H]2O[C@H](C)C[C@H](N(C)C)[C@H]2O)[C@](C)(O)C[C@@H](C)CN(C)[C@H](C)[C@@H](O)[C@]1(C)O	Condition met
O=C(O)c1cn(C2CC2)c2cc(N3CCNCC3)c(F)cc2c1=O	Condition not met
C=CC1=C(C(=O)O)N2C(=O)[C@@H](NC(=O)/C(=N\O)c3csc(N)n3)[C@H]2SC1	Condition not met
C[C@@H](O)[C@H]1C(=O)N2C(C(=O)O)=C(S[C@@H]3CN[C@H](C(=O)N(C)C)C3)[C@H](C)[C@H]12	Condition met
C[C@@H](O)[C@H]1C(=O)N2C(C(=O)O)=C(SCCNC=N)C[C@H]12 [IMIPENEM ANHYDROUS]	Condition met
CO/N=C(\C(=O)N[C@@H]1C(=O)N2C(C(=O)O)=C(COC(N)=O)CS[C@H]12)c1ccco1	Condition not met
CC1(C)S[C@@H]2[C@H](NC(=O)[C@H](N)c3ccc(O)cc3)C(=O)N2[C@H]1C(=O)O	Condition not met
COc1c(N2CCNC(C)C2)c(F)cc2c(=O)c(C(=O)O)cn(C3CC3)c12 (centres undefined)	Condition not met
CC[C@H]1OC(=O)[C@H](C)C(=O)[C@H](C)[C@@H](O[C@@H]2O[C@H](C)C[C@H](N(C)C)[C@H]2O)[C@](C)(OC)C[C@@H](C)C(=O)[C@H](C)[C@H]2N(CCCCn3cnc(-c4cccnc4)c3)C(=O)O[C@]12C	Condition met

Query: Dear colleague, could you confirm whether MIC of COCC1=C(C(=O)O)N2C(=O)[C@@H](NC(=O)/C(=N\OC)c3csc(N)n3)[C@H]2SC1 falls below 1 µg/mL? Thanks.
Response: Condition not met

Query: Dear colleague, could you confirm whether MIC of CO/N=C(\C(=O)N[C@@H]1C(=O)N2C(C(=O)O)=C(CSc3nc(=O)c(O)nn3C)CS[C@H]12)c1csc(N)n1 falls below 1 µg/mL? Thanks.
Response: Condition not met

Query: Dear colleague, could you confirm whether MIC of C[C@@H](O)[C@H]1C(=O)N2C(C(=O)O)=C(S[C@H]3CC[S@@+]([O-])C3)S[C@H]12 falls below 1 µg/mL? Thanks.
Response: Condition met
